target: human PAH with the R408W mutation (A375 R408W cells) (Homo sapiens, UniProt P00439, R408W); construct: expressed in transfected cells; assay: Cell Based Phenylalanine Flux Assay; settings: A375 R408W cells; 24 hrs with compound, then 20 μM sepiapterin and 800 μM 13C9,15N-Phenylalanine for 4 hours; 13C-Tyrosine by LC-MS; average where tested multiple times
Sequence (P00439 whole entry R408W): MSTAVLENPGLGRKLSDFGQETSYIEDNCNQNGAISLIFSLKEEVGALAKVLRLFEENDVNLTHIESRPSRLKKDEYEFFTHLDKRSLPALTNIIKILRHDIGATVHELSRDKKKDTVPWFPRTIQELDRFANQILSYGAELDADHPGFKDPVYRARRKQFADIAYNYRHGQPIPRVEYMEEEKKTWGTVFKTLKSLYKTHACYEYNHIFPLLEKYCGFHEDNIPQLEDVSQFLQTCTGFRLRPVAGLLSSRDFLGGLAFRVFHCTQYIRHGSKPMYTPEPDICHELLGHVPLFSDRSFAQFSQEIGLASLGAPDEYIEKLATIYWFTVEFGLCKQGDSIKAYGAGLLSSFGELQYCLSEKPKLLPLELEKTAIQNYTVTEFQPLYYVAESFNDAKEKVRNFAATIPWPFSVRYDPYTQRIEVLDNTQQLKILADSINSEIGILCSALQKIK
Experimental readout: AC50

Worked set:
> print(dat)
                               smiles.string      measurement
 1  O=C(CCc1ncco1)N1CCc2[nH]cnc2[C@H]1c1nc2c(F)cccc2o1   500 to 1000 nM
 2  O=C(c1nnc(-c2ccc(F)cn2)o1)N1CCc2[nH]cnc2[C@H]1c1nc2cc(F)ccc2o1   500 to 1000 nM
 3  Cc1cccc2nc([C@H]3c4nc[nH]c4CCN3C(=O)c3nnc(-c4ccn(C)n4)o3)oc12  1000 to 5000 nM
 4  C[C@@H](O)c1nc(C(F)F)c(C(=O)N2CCc3[nH]cnc3[C@H]2c2nc3cc(F)ccc3o2)o1         ≤ 500 nM
 5  Cc1ccc2nc([C@@H]3c4nc[nH]c4CCN3C(=O)c3oc(C(C)(C)O)nc3Br)oc2c1         ≤ 500 nM
 6  CC(C)(O)c1nc(C(F)F)c(C(=O)N2Cc3[nH]cnc3[C@H]2c2nc3ccccc3o2)o1        ≥ 5000 nM
 7  COc1ccc2c(C(=O)N3CCc4[nH]cnc4[C@@H]3c3nc4c(F)cccc4o3)cnn2c1  1000 to 5000 nM
 8  Nc1cn2ncc(C(=O)N3CCc4[nH]cnc4[C@H]3c3nc4cc(F)ccc4o3)c2cc1Cl         ≤ 500 nM
 9  Cc1nc(C(C)(C)O)oc1C(=O)N1CCc2[nH]cnc2[C@@H]1c1nc2c(F)cccc2o1        ≥ 5000 nM
10  C[C@H](O)c1nc(C(F)F)c(C(=O)N2CCc3[nH]cnc3[C@@H]2c2nc3c(F)cccc3o2)o1  1000 to 5000 nM

// input: 4 compounds below; output: AC50 for each
1. Cc1nc(-c2ccn(C)n2)oc1C(=O)N1CCc2[nH]cnc2[C@@H]1c1nc2cc(F)ccc2o1
2. COc1cccc2oc([C@@H]3c4nc[nH]c4CCN3C(=O)c3oc(C(C)(C)O)nc3C(F)F)nc12
3. COc1ccc(-c2nnc(C(=O)N3CCc4[nH]cnc4[C@H]3c3nc4cc(F)ccc4o3)o2)nc1
4. Cc1cccc2nc([C@H]3c4nc[nH]c4CCN3C(=O)c3nnc(-c4ccccn4)o3)oc12

Result:
1: ≥ 5000 nM; 2: ≤ 500 nM; 3: 500 to 1000 nM; 4: 1000 to 5000 nM

Problem: Value lookup for AC50; key = Cn1ccc(-c2nnc(C(=O)N3CCc4[nH]cnc4[C@H]3c3nc4cccc(F)c4o3)o2)n1
Result: ≤ 500 nM
